system_under_test: neurokinin NK1 receptor (Cavia porcellus)
Construct: Using healthy guinea pigs (body weight, 350 to 550 g; Hartley male guinea pigs); from tissue; host or cells: live anaesthetised Hartley male guinea pigs (airway, in vivo)
Sequence (P30547 whole entry): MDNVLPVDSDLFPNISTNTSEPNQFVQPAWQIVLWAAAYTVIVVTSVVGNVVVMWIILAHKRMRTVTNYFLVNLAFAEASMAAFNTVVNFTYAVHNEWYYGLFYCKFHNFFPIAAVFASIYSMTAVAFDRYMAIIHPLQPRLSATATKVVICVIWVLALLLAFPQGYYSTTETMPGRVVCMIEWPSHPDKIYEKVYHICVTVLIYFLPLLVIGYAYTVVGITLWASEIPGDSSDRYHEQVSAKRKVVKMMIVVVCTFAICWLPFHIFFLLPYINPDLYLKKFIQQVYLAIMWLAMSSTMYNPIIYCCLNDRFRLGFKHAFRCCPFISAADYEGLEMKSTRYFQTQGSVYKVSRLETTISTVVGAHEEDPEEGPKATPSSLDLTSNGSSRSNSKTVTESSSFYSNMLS
test_details: Effect of suppressing substance P-induced airway contraction (in vivo, intratracheal administration)
Set-up: species or system guinea pig
condition_context: guinea pig; guinea pigs, intratracheal administration 60 minutes before 20 μg/kg i.v. SP; AUC of increase in airway pressure over 10 minutes; read-out: ID50 (the source's name)
Where a name gives a salt, the structure may show the parent alone.
observable: ED50 (mg/kg)
Output spec: scalar in mg/kg, unitless text.

[[record]]
compound = "CN(CCN1CCC(OC(=O)Nc2ccccc2-c2ccccc2)CC1)C(=O)CCCCCNc1ccc(C(=O)N(C)CCCN(C)C(=O)CO[C@H]2Cc3ccccc3C23CCN(CC[C@@]2(c4ccc(F)cc4)CN(C(=O)c4cc(C(F)(F)F)cc(C(F)(F)F)c4)CO2)CC3)cc1"
endpoint_value = 0.0266


Record Cc1cc(NCCCCCC(=O)N(C)CCN2CCC(OC(=O)Nc3ccccc3-c3ccccc3)CC2)sc1C(=O)N(C)CCCN(C)C(=O)CO[C@H]1Cc2ccccc2C12CCN(CC[C@@]1(c3ccc(F)cc3)CN(C(=O)c3cc(C(F)(F)F)cc(C(F)(F)F)c3)CO1)CC2 [Example 30, trihydrochloride] , field ED50: 0.0388

Record Cc1cc(NCCCCCC(=O)N(C)CCN2CCC(OC(=O)Nc3ccccc3-c3ccccc3)CC2)ccc1C(=O)N(C)CCCN(C)C(=O)CO[C@H]1Cc2ccccc2C12CCN(CC[C@@]1(c3ccc(F)cc3)CN(C(=O)c3cc(C(F)(F)F)cc(C(F)(F)F)c3)CO1)CC2 [Example 18, trihydrochloride] , field ED50: 0.0614

Record CN(CCN1CCC(OC(=O)Nc2ccccc2-c2ccccc2)CC1)C(=O)CCCCCNc1ccc(C(=O)N(C)CCCN(C)C(=O)CO[C@H]2Cc3ccccc3C23CCN(CC[C@@]2(c4ccc(F)cc4)CN(C(=O)c4cc(C(F)(F)F)cc(C(F)(F)F)c4)CO2)CC3)c(Cl)c1 [Example 85, trihydrochloride] , field ED50: 0.0373
